Every entry's value here was drawn from ChEMBL document CHEMBL1201861.

# Test system: KP-N-YS;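 also: cell viability assay measuring inhibition of cell line growth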
# assayExplanation: cells
# Assay type: functional, cell-based, Homo sapiens
# recordedConditions: kp-n-ys
# Description: SANGER: Inhibition of human KP-N-YS cell growth in a cell viability assay.
valueType: IC50 (µM)
Numbers only, in µM.

Inquiry: Need IC50, item BLEOMYCIN
Reply text: 30.3

---

Please provide measured IC50 for the entries that follow.
# Tested on: 697
# assayExplanation: cells
# Format: functional, cell-based, Homo sapiens
# recordedConditions: Homo sapiens
# Description: SANGER: Inhibition of human 697 cell growth in a cell viability assay.
Where a name gives a salt, the structure may show the parent alone.
One number for each entry, in nM.

                                   compound  targetentity  testvalue
0  COc1cc(N2CCN(C)CC2)ccc1Nc1ncc2c(n1)N(C)c1ccccc1C(=O)N2C           697        654

Alright, here's another compound for you.
Inquiry: Recorded IC50 for COC1=CC(c2cc3ccccc3[nH]2)=N/C1=C\c1[nH]c(C)cc1C [OBATOCLAX MESYLATE] with 697, please?
Reply text: 53.2

---

# Test system: RPMI-8226
# assayExplanation: cells
# Format: functional, cell-based, Homo sapiens
# recordedConditions: rpmi-8226
# Description: SANGER: Inhibition of human RPMI-8226 cell growth in a cell viability assay.
valueType: pIC50
Answers are plain numbers, as −log10 of the molar value.

Inquiry: Recorded pIC50 for CISPLATIN with RPMI-8226, please?
Reply text: 3.72

---

# Test system: NB6;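 also: growth inhibition of NB6 cells, read out by a cell viability assay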
# assayExplanation: cells
# Type: functional, cell-based, Homo sapiens
# recordedConditions: Homo sapiens, NB6
# Description: SANGER: Inhibition of human NB6 cell growth in a cell viability assay.
pIC50: −log10 of the molar value.
valueType: pIC50

compound	valueType	testValue
CCN(CC)CCNC(=O)c1c(C)[nH]c(/C=C2\C(=O)Nc3ccc(F)cc32)c1C	pIC50	< 5.10
COc1cc2c(Nc3ccc(NC(=O)c4ccccc4)cc3)ncnc2cc1OCCCN1CCOCC1	pIC50	< 5.40
Cc1ccc(-c2c(C(=O)CCl)n(CCCO)c3ncnc(N)c23)cc1	pIC50	< 5.40

Record pIC50 per entry; entries follow.
1. O=C(O)c1ccc(-c2c[nH]c3ncc(-c4ccccc4)cc23)cc1C1CCCC1
2. Cn1cnc2c(F)c(Nc3ccc(Br)cc3Cl)c(C(=O)NOCCO)cc21

Reply text:
< 4.80
< 5.40

---

# Tested on: NCI-H1792;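 also: growth inhibition of human NCI-H1792 cells, read out as cell viability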
# assayExplanation: cells
# Type: functional, cell-based, Homo sapiens
# recordedConditions: Homo sapiens, NCI-H1792
# Description: SANGER: Inhibition of human NCI-H1792 cell growth in a cell viability assay.
valueType: IC50

Sample answers from the record:
compound	valueType	testValue
CO[C@H]1C[C@@H]2CC[C@@H](C)[C@@](O)(O2)C(=O)C(=O)N2CCCC[C@H]2C(=O)O[C@H]([C@H](C)C[C@@H]2CC[C@@H](OC(=O)C(C)(CO)CO)[C@H](OC)C2)CC(=O)[C@H](C)/C=C(\C)[C@@H](O)[C@@H](OC)C(=O)[C@H](C)C[C@H](C)/C=C/C=C/C=C/1C	IC50	> 0.2 µM
CC(C)CCN1c2nc(Nc3cc(F)c(O)c(F)c3)ncc2N(C)C(=O)C1C (stereo not drawn)	IC50	2.74 µM

Alright, here's another compound for you.
Inquiry: Need IC50, item CN(C)C(=N)NC(=N)N
Reply text: > 20000 µM

---

# Tested on: OE33;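 also: growth inhibition of human OE33 cells, measured by a cell viability assay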
# assayExplanation: cells
# Type: functional, cell-based, Homo sapiens
# recordedConditions: oe33
# Description: SANGER: Inhibition of human OE33 cell growth in a cell viability assay.
valueType: pIC50
Give bare numbers, as −log10 of the molar value.

Inquiry: Need pIC50, item BLEOMYCIN
Reply text: 5.56
